- Protocol: RP, Merck Supelco Ascentis Express C18, 100 × 2.1 mm, 2 µm, 40 °C, 0.2 mL/min, estimated dead time 1.1 min; A: water + 0.1% formic acid, pH 3; B: acetonitrile + 0.1% formic acid, pH 3; gradient (min/%B) 0/5 2/5 17/99.9 20/99.9
- Assay Context: stereoisomer not certain

Compound | LC retention time
O=C(O)CCCCC1SCC2NC(=O)NC21 (stereo not given) | 5.44 min
CC(C)=CCNc1ncnc2nc[nH]c12 | 5.58 min
O=C(O)CCC(=O)C(=O)O [OXOGLUTARATE] | 1.41 min
CCCCCCCCCCCC(=O)O [LAURATE] | 14.7 min
Cn1c(=O)c2[nH]cnc2n(C)c1=O | 3.98 min
O=C(O)Cc1ccccc1O [2-HYDROXYPHENYLACETATE] | 4.85 min
CCCCCCCCCCCCCC(=O)O [MYRISTATE] | 16.4 min
NC(=O)Cc1c[nH]c2ccccc12 [INDOLE-3-ACETAMIDE] | 5.84 min
O=C(O)CCCCC(=O)O [ADIPATE] | 3.99 min
O=C(O)CCCC(=O)C(=O)O [OXOADIPATE] | 1.48 min
